# Target entity: α1b-AR (Homo sapiens, UniProt P35368)
# Construct: expressed in transfected cells; host or cells: COS cells (pcDNA3 vector, DEAE-dextran transient transfection); membrane preparation
# Sequence (P35368 whole entry): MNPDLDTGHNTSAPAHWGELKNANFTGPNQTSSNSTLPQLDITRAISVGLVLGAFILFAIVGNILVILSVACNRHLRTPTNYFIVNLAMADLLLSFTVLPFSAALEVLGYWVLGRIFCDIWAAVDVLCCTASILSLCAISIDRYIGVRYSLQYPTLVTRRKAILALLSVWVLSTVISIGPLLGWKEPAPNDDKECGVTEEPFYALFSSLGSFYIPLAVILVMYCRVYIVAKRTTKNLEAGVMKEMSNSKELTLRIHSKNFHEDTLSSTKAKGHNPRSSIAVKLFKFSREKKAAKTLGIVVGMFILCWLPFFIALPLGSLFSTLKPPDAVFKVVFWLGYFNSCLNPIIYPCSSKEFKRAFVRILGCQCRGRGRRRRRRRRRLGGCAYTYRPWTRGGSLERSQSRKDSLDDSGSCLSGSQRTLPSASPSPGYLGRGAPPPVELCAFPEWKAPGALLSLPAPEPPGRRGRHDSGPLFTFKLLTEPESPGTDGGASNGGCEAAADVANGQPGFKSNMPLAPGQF
# Protocol text: radioligand ([125I]-HEAT) receptor binding assay, COS cell membranes, α1b-AR
# Test parameters: stated in the preparative example; read-out: activity in the α1b screen
pIC50: −log10 of the molar value.
For each of the molecules below, state its pIC50.

Examples with their reported pIC50 follow.
# Molecule, Target entity, pIC50
data = [
    ("CC(C)Oc1ccccc1N1CCN(CC(O)CC(=O)CN2CCCCC2=O)CC1 (stereo not shown)", "α1b-AR (Homo sapiens, UniProt P35368)", "< 5.00"),
    ("CC(C)Oc1ccccc1N1CCN(CC(O)CC(O)CN2CCCCC2=O)CC1 (stereo not shown)", "α1b-AR (Homo sapiens, UniProt P35368)", "< 5.00"),
    ("CC(C)Oc1ccccc1N1CCN(C/C=C/C(=O)CN2CCCCC2=O)CC1", "α1b-AR (Homo sapiens, UniProt P35368)", 5.27),
]

Notebook: CC(C)Oc1ccccc1N1CCN(CC(=O)CC(=O)CN2CCCCC2=O)CC1 , pIC50 read as < 5.00

Every entry's value here was drawn from patent US6841682B2.
